- testedSystem: human P2X3 receptor (Homo sapiens (Human), UniProt P56373)
- Sequence (P56373 whole entry): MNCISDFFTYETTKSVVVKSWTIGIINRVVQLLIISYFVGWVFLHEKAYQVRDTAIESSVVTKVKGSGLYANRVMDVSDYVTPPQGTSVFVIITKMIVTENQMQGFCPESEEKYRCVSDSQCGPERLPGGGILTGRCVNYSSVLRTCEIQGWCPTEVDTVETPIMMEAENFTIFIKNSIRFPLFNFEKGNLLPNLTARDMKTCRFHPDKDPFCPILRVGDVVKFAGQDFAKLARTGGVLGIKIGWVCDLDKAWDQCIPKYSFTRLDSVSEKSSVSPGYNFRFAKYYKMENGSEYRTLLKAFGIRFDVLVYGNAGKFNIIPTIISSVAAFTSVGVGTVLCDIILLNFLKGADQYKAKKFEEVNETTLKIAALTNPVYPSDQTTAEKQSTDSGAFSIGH
- testDetails: Evaluation of human P2X3 receptor inhibitory activity (Fluo-3 calcium fluorescence, FDSS 3000, ATP stimulation);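 further: stimulus was 50 nM ATP with fluorescence followed for 3 min, and the response per well was peak post-ATP fluorescence divided by the reading at measurement start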
- Assay type: cell-based
- assaySetup: human P2X3 receptor, Test Example 1
pIC50: −log10 of the molar value.
Label criterion met for high-side pIC50 (at or above 8) and criterion not met for low-side pIC50 (below it).

Reference set, count: 5
[
  {
    "smilesString": "CCn1c(=O)[nH]/c(=N\\c2ccc(Oc3ncc(C(=O)O)s3)cc2)n(C[C@H]2CC[C@H](C)CC2)c1=O",
    "cat": "criterion met"
  },
  {
    "smilesString": "CCn1c(=O)[nH]/c(=N\\c2ccc(Oc3ccc(C(=O)NC)nn3)cc2)n(Cc2ccc(Cl)cc2)c1=O",
    "cat": "criterion met"
  },
  {
    "smilesString": "CCn1c(=O)[nH]/c(=N\\c2ccc(Oc3ccc(C(=O)O)nc3)cc2)n(Cc2ccc(Cl)cn2)c1=O",
    "cat": "criterion not met"
  },
  {
    "smilesString": "CCOc1ccc(/N=c2\\[nH]c(=O)n(CCCC(=O)O)c(=O)n2Cc2ccc(C)cc2)cc1Cl",
    "cat": "criterion not met"
  },
  {
    "smilesString": "CCn1c(=O)[nH]/c(=N\\c2cccc(Oc3cccc(C#N)n3)c2)n(Cc2ccc(Cl)cc2)c1=O",
    "cat": "criterion not met"
  }
]

**Q:** Hi team, for CCCOc1ccc(/N=c2\[nH]c(=O)n(C[C@H](CC)C(=O)O)c(=O)n2Cc2ccc(C)cc2)cc1 , is the recorded pIC50 at or above 8?
**A:** criterion not met

**Q:** Hi team, for COC(=O)CCn1c(=O)[nH]/c(=N\c2ccc(Oc3cc(C#N)ccn3)cc2)n(Cc2ccc(C)cc2)c1=O , is the recorded pIC50 at or above 8?
**A:** criterion met
